All values here come from ChEMBL document CHEMBL5724914.

# assay method text: The drug is tested on Z-007 corresponding to rat gut metagenome with ENA study accession number: PRJEB37062 and ENA sample accession number: ERS12561807 for biotransformation under anaerobic condition. The drug concentrations were measured over 9 timepoints collected between 0 and 24 hours of incubation by liquid-chromatography-coupled mass spectrometry (LC–MS); note: call rule not given here
# condition context: 2 µM
measured quantity: Bacterial Biotransformation

compound: CCN(C)C(=O)Oc1cccc([C@H](C)N(C)C)c1.O=C(O)C(O)C(O)C(=O)O [RIVASTIGMINE TARTRATE]
assay result: Compound NOT metabolized

compound: C=CC[C@@H]1/C=C(\C)C[C@H](C)C[C@H](OC)[C@H]2O[C@@](O)(C(=O)C(=O)N3CCCC[C@H]3C(=O)O[C@H](/C(C)=C/[C@@H]3CC[C@@H](O)[C@H](OC)C3)[C@H](C)[C@@H](O)CC1=O)[C@H](C)C[C@@H]2OC.O
assay result: Compound NOT metabolized

compound: C#C[C@]1(OC(C)=O)CC[C@H]2[C@@H]3CCC4=C/C(=N/O)CC[C@@H]4[C@H]3CC[C@@]21CC [NORGESTIMATE]
assay result: Compound NOT metabolized
